- System: Escherichia coli
- procedure.summary: Antibacterial activity against Escherichia coli ATCC 25922 after 16 to 18 hrs by […]
- Assay type: functional
Give MIC for every item shown.
State the answer as a number, implicitly in µg/mL.

// MIC lookup, compound = Nc1nc(COC(=O)Cc2ccccc2OC(F)(F)F)cs1 , result: 12.5

// MIC lookup, compound = Nc1nc(COC(=O)c2cccs2)cs1 , result: 6.25

// MIC lookup, compound = N#Cc1cccc(C(=O)OCc2csc(N)n2)n1 , result: 12.5

// MIC lookup, compound = Nc1nc(COC(=O)c2ccc([N+](=O)[O-])cc2)cs1 , result: 12.5

// MIC lookup, compound = Nc1nc(COC(=O)c2cc(F)cc(C(F)(F)F)c2)cs1 , result: 25

// MIC lookup, compound = N#Cc1ccccc1C(=O)OCc1csc(N)n1 , result: 6.25

// MIC lookup, compound = Nc1nc(COC(=O)c2ccco2)cs1 , result: 6.25

// MIC lookup, compound = Nc1nc(COC(=O)c2ccccc2[N+](=O)[O-])cs1 , result: 12.5

// MIC lookup, compound = Nc1nc(COC(=O)C2(c3ccc(Cl)cc3)CC2)cs1 , result: 6.25

// MIC lookup, compound = Nc1nc(COC(=O)c2ccc(Br)cc2)cs1 , result: 25

// MIC lookup, compound = Nc1nc(COC(=O)c2c(F)cc(F)cc2F)cs1 , result: 6.25

// MIC lookup, compound = Nc1nc(COC(=O)c2ccccc2)cs1 , result: 25

// MIC lookup, compound = Nc1nc(COC(=O)c2c(F)cccc2Cl)cs1 , result: 25
